- Tested on: Mus musculus
- Test summary: Spermatogenic index (percent change from vehicle control) was calculated in Adult Male Swiss Mice at 6 (umol/kg) dose
- Format: functional
Exercise: for every item that follows, state its recorded SI.
One number for each entry, in %.

CCN1CC[C@H]2[C@H](c3ccc(C(=O)O)cc3)c3cc(C)c(Br)cc3[C@H]2C1 :: -69
CCN1CC[C@H]2[C@H](c3ccc(C(=O)OC)cc3)c3cc(C)c(I)cc3[C@H]2C1 (stereo in doubt; 2b) :: -69
CCN1CC[C@H]2[C@H](c3ccc(C(=O)OC)cc3)c3cc(C)c(I)cc3[C@H]2C1 (stereo in doubt; (l)-2b) :: -71

Now examine the next entry.
Would you mind telling me what SI value was observed for CCN1CC[C@H]2[C@H](c3ccc(C(=O)O)cc3)c3cc(C)c(I)cc3[C@H]2C1 ? -66
